testTarget: Wild-type cruzipain (Trypanosoma cruzi, UniProt P25779)
Sequence (P25779 whole entry): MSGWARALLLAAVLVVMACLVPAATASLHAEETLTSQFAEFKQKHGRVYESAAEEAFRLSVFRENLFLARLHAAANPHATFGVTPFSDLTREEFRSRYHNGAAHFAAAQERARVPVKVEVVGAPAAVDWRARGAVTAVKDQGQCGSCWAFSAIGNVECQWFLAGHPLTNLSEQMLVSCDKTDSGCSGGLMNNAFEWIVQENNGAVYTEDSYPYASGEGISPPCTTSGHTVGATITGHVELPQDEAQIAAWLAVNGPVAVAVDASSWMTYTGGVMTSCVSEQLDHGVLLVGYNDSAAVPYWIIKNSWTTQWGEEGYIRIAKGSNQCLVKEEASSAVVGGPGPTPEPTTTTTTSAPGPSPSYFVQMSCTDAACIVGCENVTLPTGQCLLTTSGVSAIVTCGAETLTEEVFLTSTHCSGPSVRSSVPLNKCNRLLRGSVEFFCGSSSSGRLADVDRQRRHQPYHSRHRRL
experimentalDetails: Trypanosoma cruzi cruzipain peptidase activity assay (Ki)
Format: biochemical
runParameters: read-out: Ki, inhibitors of cruzain and cruzipains
Please provide measured Ki for the entries that follow.

>  <compound>
CC(C)C[C@H](NC(=O)c1ccc(N(C)C)cc1)C(=O)N1CC[C@@H]2[C@H]1C(=O)CN2C(=O)c1ccc(S(C)(=O)=O)s1 [Example 51]

>  <Ki>
< 5 µM

$$$$

Could you tell me Ki for each of these compounds? They are listed below.
1. CC(C)C[C@H](NC(=O)c1ccc2ncsc2c1)C(=O)N1CC[C@@H]2[C@H]1C(=O)CN2C(=O)c1ccccc1 [Example 90]
2. Cc1c(C(=O)N[C@@H](CC(C)C)C(=O)N2CC[C@@H]3[C@H]2C(=O)CN3C(=O)c2ccccc2)oc2ccccc12 [Example 10]

(A)
< 5 µM
< 5 µM

====

Please provide measured Ki for the entries that follow.
testTarget: Wild-type cruzipain (Trypanosoma cruzi, UniProt P25779)
experimentalDetails: Trypanosoma cruzi cruzipain peptidase activity assay (Ki)
Type: biochemical
runParameters: read-out: Ki, inhibitors of cruzain and cruzipains

See these solved cases before continuing.
>  <compound>
CC(C)C[C@H](NC(=O)c1ccc(N(C)C)cc1)C(=O)N1CC[C@@H]2[C@H]1C(=O)CN2C(=O)c1ccc[n+]([O-])c1 [Example 81]

>  <Ki>
< 5 µM

$$$$
>  <compound>
Cc1cccc(C[C@H](NC(=O)C(c2ccccc2)c2ccccc2)C(=O)N2CC[C@@H]3[C@H]2C(=O)CN3C(=O)c2csc3ccccc23)c1 [Example 314]

>  <Ki>
< 5 µM

$$$$
>  <compound>
CC(C)C[C@H](NC(=O)c1ccc(C(C)(C)C)cc1)C(=O)N1CC[C@@H]2[C@H]1C(=O)CN2C(=O)c1cccnc1 [Example 5]

>  <Ki>
< 5 µM

$$$$

Could you tell me Ki for each of these compounds? They are listed below.
1. O=C(N[C@@H](Cc1ccc(O)cc1)C(=O)N1CC[C@@H]2[C@H]1C(=O)CN2C(=O)c1cccc([N+](=O)[O-])c1)c1cccc(Br)c1 [Example 305]
2. CC(C)C[C@H](NC(=O)c1ccc(CN)cc1)C(=O)N1CC[C@@H]2[C@H]1C(=O)CN2C(=O)c1ccccc1 [Example 93]
3. COC1CCCC(C(=O)N2CC(=O)[C@@H]3[C@H]2CCN3C(=O)[C@H](CC(C)C)NC(=O)c2ccc(N(C)C)cc2)C1 (stereo partly drawn) [Example 139]

(A)
1: < 5 µM; 2: < 5 µM; 3: < 5 µM

====

Please provide measured pKi for the entries that follow.
testTarget: human cathepsin B (Homo sapiens)
Construct: purchased CN Biosciences
experimentalDetails: Cathepsin B peptidase activity assay (Ki)
Format: biochemical
runParameters: read-out: Ki, inhibitors of cathepsin B
pKi: −log10 of the molar value.

See these solved cases before continuing.
>  <chemicalSmiles>
CC(C)C[C@H](NC(=O)c1ccc(N(C)C)cc1)C(=O)N1CC[C@@H]2[C@H]1C(=O)CN2C(=O)c1csc2ccccc12

>  <pKi>
> 5.30

$$$$
>  <chemicalSmiles>
O=C(N[C@@H](CSCc1ccccc1)C(=O)N1CC[C@@H]2[C@H]1C(=O)CN2C(=O)c1ccccc1)c1ccsc1

>  <pKi>
> 5.30

$$$$

Alright, here's another molecule for you.
(Q) Fill in pKi for "CC(C)C[C@H](NC(=O)c1ccc(N2CCNCC2)cc1)C(=O)N1CC[C@@H]2[C@H]1C(=O)CN2C(=O)c1ccccc1" tested with human cathepsin B (Homo sapiens).
(A) > 5.30
